Biological target: T1, CRBN, Q96SW2;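 also: pooled lentiviral library of zinc finger degron-EGFP fusions in mCherry-positive Jurkat cells, FACS-sorted after compound exposure, with degron abundance counted by next-generation sequencing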
T1 chain: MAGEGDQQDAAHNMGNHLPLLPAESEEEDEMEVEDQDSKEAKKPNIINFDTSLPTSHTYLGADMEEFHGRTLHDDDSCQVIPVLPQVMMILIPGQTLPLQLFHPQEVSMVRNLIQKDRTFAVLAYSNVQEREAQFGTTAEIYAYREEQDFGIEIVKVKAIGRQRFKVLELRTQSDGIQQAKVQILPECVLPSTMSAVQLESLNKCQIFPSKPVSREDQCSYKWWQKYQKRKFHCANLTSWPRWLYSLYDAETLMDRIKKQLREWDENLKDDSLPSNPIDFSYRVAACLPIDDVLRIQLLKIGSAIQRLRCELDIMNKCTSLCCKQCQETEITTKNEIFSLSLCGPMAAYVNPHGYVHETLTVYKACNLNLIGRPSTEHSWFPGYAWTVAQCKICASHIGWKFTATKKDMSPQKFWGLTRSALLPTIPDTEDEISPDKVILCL
Assay: log2 fold change of degron read counts, EGFP-low vs EGFP+ sorted cells (limma voom), compound-induced degradation; higher = more compound-induced degradation of the degron-EGFP fusion; degrons are variants of IKZF1/3 zinc finger 2; compound dose not given here
Conditions: Jurkat; 18 h; compound: thalidomide
Whole data set: some 8,300 sequences, median “log2 fold change of degron read counts, EGFP-low vs EGFP+ sorted cells (limma voom), compound-induced degradation” near -1.1, cut for the highest 2% near 3.2. Many of the other results were omitted from the sample, so the highest values are more common in it than they were.
Reported log2 fold change of degron read counts by item:
property name: log2 fold change of degron read counts

residue sequence: FCCPQCGANFTQKGNLLRHIKL [46F_47C_49P_50Q_52G_53A_54N_55F_67L_, Q9UKT9]
property name: log2 fold change of degron read counts
experimental value: -0.853

residue sequence: FSCNVCGARFTQKGNLLRHIKL [46F_47S_49N_50V_52G_53A_54R_55F_67L_, Q9UKT9]
property name: log2 fold change of degron read counts
experimental value: -0.0608

residue sequence: FFCEVCGALFTQKGNLLRHIKL [46F_47F_49E_50V_52G_53A_54L_55F_67L_, Q9UKT9]
property name: log2 fold change of degron read counts
experimental value: 0.407

residue sequence: LVCEICGFDCTQKGNLLRHIKL [46L_47V_49E_50I_52G_53F_54D_55C_67L_, Q9UKT9]
property name: log2 fold change of degron read counts
experimental value: -1.81

residue sequence: FWCEVCGADFTQKGNLLRHIKL [46F_47W_49E_50V_52G_53A_54D_55F_67L_, Q9UKT9]
property name: log2 fold change of degron read counts
experimental value: -1.26

residue sequence: LICNQCGFPCTQKGNLLRHIKL [46L_47I_49N_50Q_52G_53F_54P_55C_67L_, Q9UKT9]
property name: log2 fold change of degron read counts
experimental value: -1.65

residue sequence: FDCEICGAHFTQKGNLLRHIKL [46F_47D_49E_50I_52G_53A_54H_55F_67L_, Q9UKT9]
property name: log2 fold change of degron read counts
experimental value: 1.02

residue sequence: FMCEVCGAFFTQKGNLLRHIKL [46F_47M_49E_50V_52G_53A_54F_55F_67L_, Q9UKT9]
property name: log2 fold change of degron read counts
experimental value: -1.37

residue sequence: FWCEVCGAMFTQKGNLLRHIKL [46F_47W_49E_50V_52G_53A_54M_55F_67L_, Q9UKT9]
property name: log2 fold change of degron read counts
experimental value: 0.316
